- protocol notes: Cytotoxicity in mock-infected HEL cells (MTS)
- Type: cell-based, human
- measurement parameters: human
property measured: CC50 at 5 days

# get_value(readout='CC50 at 5 days', item= N#C[C@@]1(c2ccc3c(N)ncnn23)O[C@H](CO)[C@@H](O)[C@H]1O [GS-441524, reference compound] )
> 40 µM

* * *

Below, each entry is listed alongside its reported IC50.
- assayed target: human recombinant cathepsin L (Homo sapiens)
- Construct: made in house; host or cells: Escherichia coli
- Sequence (P07711 114-333): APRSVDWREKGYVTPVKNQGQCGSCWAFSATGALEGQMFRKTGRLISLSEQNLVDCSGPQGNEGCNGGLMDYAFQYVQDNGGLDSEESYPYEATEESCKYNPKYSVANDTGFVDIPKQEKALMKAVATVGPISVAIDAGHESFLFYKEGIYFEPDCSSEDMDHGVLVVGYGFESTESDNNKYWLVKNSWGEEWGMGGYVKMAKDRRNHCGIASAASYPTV
- protocol notes: biochemical
- Type: biochemical
- measurement parameters: read-out: Cathepsin L IC50; pH 5.5, Z-Phe-Arg-AMC substrate
The reply should contain only the number, in µM.

CC(=O)N[C@H]1[C@H](O[C@@H]2c3ccc(c(Cl)c3)Oc3cc4cc(c3O)Oc3ccc(cc3Cl)C[C@H]3NC(=O)[C@H](NC(=O)CCC(F)(F)C(F)(F)C(F)(F)C(F)(F)C(F)(F)C(F)(F)C(F)(F)C(F)(F)F)c5ccc(O)c(c5)Oc5cc(O)cc(c5)[C@H](NC3=O)C(=O)N[C@H]4C(=O)N[C@H]3C(=O)N[C@@H]2C(=O)N[C@H](C(=O)O)c2cc(O)cc(O)c2-c2cc3ccc2O)O[C@H](CO)[C@@H](O)[C@@H]1O
52

Proceeding to the next compound to report its IC50.
What IC50 value was documented for this compound, `CC(=O)N[C@H]1[C@H](O[C@@H]2c3ccc(c(Cl)c3)Oc3cc4cc(c3O)Oc3ccc(cc3Cl)C[C@H]3NC(=O)[C@H](n5cc(COCCCC(F)(F)C(F)(F)C(F)(F)C(F)(F)C(F)(F)C(F)(F)F)nn5)c5ccc(O)c(c5)Oc5cc(O)cc(c5)[C@H](NC3=O)C(=O)N[C@H]4C(=O)N[C@H]3C(=O)N[C@@H]2C(=O)N[C@H](C(=O)O)c2cc(O)cc(O)c2-c2cc3ccc2O)O[C@H](CO)[C@@H](O)[C@@H]1O` ?
66

* * *

- Tested on: S. aureus
- protocol notes: MIC, broth microdilution
- Format: cell-based
- measurement parameters: Staphylococcus aureus, MRSA, read-out: MIC value, S. aureus N315, MRSA
property measured: MIC (µg/mL)
Expressed in µg/mL, but write only the number.

Examples with answers:
CC(=O)N[C@H]1[C@H](O[C@@H]2c3ccc(c(Cl)c3)Oc3cc4cc(c3O)Oc3ccc(cc3Cl)C[C@H]3NC(=O)[C@H](NC(=O)CCC(F)(F)C(F)(F)C(F)(F)C(F)(F)C(F)(F)C(F)(F)C(F)(F)C(F)(F)F)c5ccc(O)c(c5)Oc5cc(O)cc(c5)[C@H](NC3=O)C(=O)N[C@H]4C(=O)N[C@H]3C(=O)N[C@@H]2C(=O)N[C@H](C(=O)O)c2cc(O)cc(O)c2-c2cc3ccc2O)O[C@H](CO)[C@@H](O)[C@@H]1O
2
CC(=O)N[C@H]1[C@H](O[C@@H]2c3ccc(c(Cl)c3)Oc3cc4cc(c3O)Oc3ccc(cc3Cl)C[C@H]3NC(=O)[C@H](n5cc(COCCOCCCC(F)(F)C(F)(F)C(F)(F)C(F)(F)F)nn5)c5ccc(O)c(c5)Oc5cc(O)cc(c5)[C@H](NC3=O)C(=O)N[C@H]4C(=O)N[C@H]3C(=O)N[C@@H]2C(=O)N[C@H](C(=O)O)c2cc(O)cc(O)c2-c2cc3ccc2O)O[C@H](CO)[C@@H](O)[C@@H]1O
0.25

Shifting focus to the compound that follows.
Can you look up the measured MIC of CN[C@H](CC(C)C)C(=O)N[C@H]1C(=O)N[C@@H](CC(N)=O)C(=O)N[C@H]2C(=O)N[C@H]3C(=O)N[C@H](C(=O)N[C@H](C(=O)O)c4cc(O)cc(O)c4-c4cc3ccc4O)[C@H](O)c3ccc(c(Cl)c3)Oc3cc2cc(c3O[C@@H]2O[C@H](CO)[C@@H](O)[C@H](O)[C@H]2O[C@H]2C[C@](C)(N)[C@H](O)[C@H](C)O2)Oc2ccc(cc2Cl)[C@H]1O [VAN, vancomycin, reference compound] for me?
0.5

* * *

- Tested on: Calu-3 cells
- protocol notes: Cytotoxicity in mock-infected Calu-3 cells (XTT)
- measurement parameters: read-out: CC50, Calu-3 cells, three days
Recorded CC50 for the following compounds

Previously resolved entries follow.
CC(=O)N[C@H]1[C@H](O[C@@H]2c3ccc(c(Cl)c3)Oc3cc4cc(c3O)Oc3ccc(cc3Cl)C[C@H]3NC(=O)[C@H](NC(=N)N)c5ccc(O)c(c5)Oc5cc(O)cc(c5)[C@H](NC3=O)C(=O)N[C@H]4C(=O)N[C@H]3C(=O)N[C@@H]2C(=O)N[C@H](C(=O)O)c2cc(O)cc(O)c2-c2cc3ccc2O)O[C@H](CO)[C@@H](O)[C@@H]1O
> 100 µM
CC(=O)N[C@H]1[C@H](O[C@@H]2c3ccc(c(Cl)c3)Oc3cc4cc(c3O)Oc3ccc(cc3Cl)C[C@H]3NC(=O)[C@H](NC(=O)CCC(F)(F)C(F)(F)C(F)(F)C(F)(F)C(F)(F)C(F)(F)C(F)(F)C(F)(F)F)c5ccc(O)c(c5)Oc5cc(O)cc(c5)[C@H](NC3=O)C(=O)N[C@H]4C(=O)N[C@H]3C(=O)N[C@@H]2C(=O)N[C@H](C(=O)O)c2cc(O)cc(O)c2-c2cc3ccc2O)O[C@H](CO)[C@@H](O)[C@@H]1O
> 100 µM
CC(=O)N[C@H]1[C@H](O[C@@H]2c3ccc(c(Cl)c3)Oc3cc4cc(c3O)Oc3ccc(cc3Cl)C[C@H]3NC(=O)[C@H](NC(=O)c5cc(OCCCSCCNC(=N)N)c(OCCCSCCNC(=N)N)c(OCCCSCCNC(=N)N)c5)c5ccc(O)c(c5)Oc5cc(O)cc(c5)[C@H](NC3=O)C(=O)N[C@H]4C(=O)N[C@H]3C(=O)N[C@@H]2C(=O)N[C@H](C(=O)O)c2cc(O)cc(O)c2-c2cc3ccc2O)O[C@H](CO)[C@@H](O)[C@@H]1O
> 100 µM

Requested read-out: CC50. Entry: CCCCCCCCOC1C(OC)OC(COCCOCCOCCOCCOCc2cn(C3C(=O)NC4Cc5ccc(c(Cl)c5)Oc5cc6cc(c5O)Oc5ccc(cc5Cl)C(OC5OC(CO)C(O)C(O)C5NC(C)=O)C5NC(=O)C(NC(=O)C6NC(=O)C(NC4=O)c4cc(O)cc(c4)Oc4cc3ccc4O)c3ccc(O)c(c3)-c3c(O)cc(O)cc3C(C(=O)O)NC5=O)nn2)C(O)C1OCCCCCCCC (centres unmarked)
75 µM

Next: `CC(=O)N[C@H]1[C@H](O[C@@H]2c3ccc(c(Cl)c3)Oc3cc4cc(c3O)Oc3ccc(cc3Cl)C[C@H]3NC(=O)[C@H](n5cc(COCCCC(F)(F)C(F)(F)C(F)(F)C(F)(F)C(F)(F)C(F)(F)F)nn5)c5ccc(O)c(c5)Oc5cc(O)cc(c5)[C@H](NC3=O)C(=O)N[C@H]4C(=O)N[C@H]3C(=O)N[C@@H]2C(=O)N[C@H](C(=O)O)c2cc(O)cc(O)c2-c2cc3ccc2O)O[C@H](CO)[C@@H](O)[C@@H]1O`
93 µM

* * *

- Test system: S. aureus
- protocol notes: MIC, broth microdilution
- Type: cell-based
- measurement parameters: Staphylococcus aureus, MRSA, read-out: MIC value, S. aureus N315, MRSA
Reported MIC values for a set of molecules
Just the number in µg/mL, nothing appended.

CC(=O)N[C@H]1[C@H](O[C@@H]2c3ccc(c(Cl)c3)Oc3cc4cc(c3O)Oc3ccc(cc3Cl)C[C@H]3NC(=O)[C@H](n5cc(COCCCC(F)(F)C(F)(F)C(F)(F)C(F)(F)C(F)(F)C(F)(F)F)nn5)c5ccc(O)c(c5)Oc5cc(O)cc(c5)[C@H](NC3=O)C(=O)N[C@H]4C(=O)N[C@H]3C(=O)N[C@@H]2C(=O)N[C@H](C(=O)O)c2cc(O)cc(O)c2-c2cc3ccc2O)O[C@H](CO)[C@@H](O)[C@@H]1O
2
CC(=O)N[C@H]1[C@H](O[C@@H]2c3ccc(c(Cl)c3)Oc3cc4cc(c3O)Oc3ccc(cc3Cl)C[C@H]3NC(=O)[C@H](NC(=O)c5cc(OCCCSCCNC(=N)N)c(OCCCSCCNC(=N)N)c(OCCCSCCNC(=N)N)c5)c5ccc(O)c(c5)Oc5cc(O)cc(c5)[C@H](NC3=O)C(=O)N[C@H]4C(=O)N[C@H]3C(=O)N[C@@H]2C(=O)N[C@H](C(=O)O)c2cc(O)cc(O)c2-c2cc3ccc2O)O[C@H](CO)[C@@H](O)[C@@H]1O
0.25

Please examine the following record next.
Which MIC reading was recorded for the molecule `CC(=O)N[C@H]1[C@H](O[C@@H]2c3ccc(c(Cl)c3)Oc3cc4cc(c3O)Oc3ccc(cc3Cl)C[C@H]3NC(=O)[C@H](NC(=N)N)c5ccc(O)c(c5)Oc5cc(O)cc(c5)[C@H](NC3=O)C(=O)N[C@H]4C(=O)N[C@H]3C(=O)N[C@@H]2C(=O)N[C@H](C(=O)O)c2cc(O)cc(O)c2-c2cc3ccc2O)O[C@H](CO)[C@@H](O)[C@@H]1O` ?
0.125
